Entries and their measured GI50 follow.
Tested on: UACC-257
Experiment: NCI tumour cell line growth inhibition, 48 h
Calls of active or inactive are those of the source. Rule as the data show it: active = GI50 up to about 1.1 µM and inactive = higher.

| Compound | GI50 |
| --- | --- |
| O=C1/C(=C/c2ccccc2O)N=C(c2ccccc2)N1C1Nc2cc3c(cc2S1)NC(N1C(=O)/C(=C/c2ccccc2O)N=C1c1ccccc1)S3 (configuration not stated) | 66.8 µM (inactive) |
| COc1cc(OC(=O)c2c(O)cc(O)c(O)c2C)cc(C)c1C(=O)Oc1cc(C)c(C(=O)O)c(O)c1 | > 100 µM (inactive) |
| O=c1c(=O)c2cscc2c1=O | 4.27 µM (inactive) |

# value of GI50, UACC-257, item Cc1cc2nc(-c3cc(C(C)(C)C)c(O)c(C(C)(C)C)c3)[nH]c2cc1C = > 52.2 µM (inactive)

----------
Tested on: HOP-92
Experiment: NCI tumour cell line growth inhibition, 48 h
Calls of active or inactive are those of the source. Cut-off read from the data, not from the text of the source: active = GI50 up to about 1.1 µM and inactive = higher.
Quantity kind: GI50

| Molecule | Quantity kind | Value observed |
| --- | --- | --- |
| CC(C)(C)c1cc(CCC(=O)Nc2ccc(Cl)cc2Cl)nc(N)n1 | GI50 | 91.6 µM (inactive) |
| COc1cccc2c1C(=O)c1c(O)c3c(c(O)c1C2=O)C[C@@](O)(C(C)=O)C[C@@H]3OC1CC(O)C(O)C(C)O1 (stereo partly specified) | GI50 | 2.1 µM (inactive) |
| O=C1O/C(=C(\Br)c2ccc([N+](=O)[O-])cc2)c2ccccc21 | GI50 | > 100 µM (inactive) |

Sure, the documented GI50 for CC1CCCC(C(=O)/C(=C/c2cccc(Cl)c2)C(=O)C(=O)O)C1 (stereo unspecified) is 39 µM (inactive)

Sure, the documented GI50 for CC1C2CC(CC2=O)C1(C)C (stereo unspecified) is > 100 µM (inactive)

Sure, the documented GI50 for COC(=O)C1Cc2c(OC)ccc(OC)c2CC(C(=O)OC)C1=O (stereo unspecified) is 44 µM (inactive)

----------
System: A549
Experiment: NCI tumour cell line growth inhibition, 48 h
The source made the active and inactive calls. Cut-off read from the data, not from the text of the source: active = GI50 up to about 1.1 µM and inactive = higher.
Select the matching outcome among 1.0 (active), 0.0 (inactive)

Worked cases, answers included:
| Compound | Label value |
| --- | --- |
| Cc1nc2nc3c(ncn3COCCO)c(O)n2c1C(c1ccccc1)(c1ccccc1)c1ccccc1 | 0.0 |
| OCCN(CCO)c1cccc(N(CCO)CCO)c1 | 0.0 |
| NC(CCCCN/C=C1/N=C(c2ccccc2)OC1=O)C(=O)O (centres undefined) | 0.0 |
| Cc1cc(C)nc(NS(=O)(=O)c2ccc(NC(=O)c3cc([N+](=O)[O-])cc([N+](=O)[O-])c3)cc2)n1 | 0.0 |
| Cc1ncc([N+](=O)[O-])n1CCNC(=O)CCC(=O)NCCCn1ccnc1[N+](=O)[O-] | 0.0 |
| Clc1nc2c(N3CCCC3)nc(N3CCNCC3)nc2[nH]1 | 0.0 |

Give the logged outcome of this assay for the following compound: CC(C)=CCC(OC(=O)C=C(C)C)c1cc(O)c2c(c1O)C(=O)C=CC2=O (centres undefined)
0.0

Give the logged outcome of this assay for the following compound: O=C(N/C(=C\c1ccc([N+](=O)[O-])cc1)c1nc2c(O)nc(S)nc2[nH]1)c1ccccc1
0.0

Give the logged outcome of this assay for the following compound: Brc1ccccc1-c1ncc(-c2ccccc2)o1
0.0

Give the logged outcome of this assay for the following compound: CC1(C)CC(=O)c2c(nc(SSc3nc4c(c(-c5ccccc5)c3C#N)C(=O)CC(C)(C)C4)c(C#N)c2-c2ccccc2)C1
0.0

Give the logged outcome of this assay for the following compound: CC(C)C(CC(=O)OCC(CO)OC(=O)CC(C(C)C)C(C)C)C(C)C (centres undefined)
0.0

----------
Test system: MDA-MB-231
Test: NCI tumour cell line growth inhibition, 48 h
Active and inactive are the calls of the source. Rule as the data show it: active = GI50 up to about 1.1 µM and inactive = higher.
Entries and their measured GI50 follow.

Sample records with GI50:
| Compound | Value observed |
| --- | --- |
| O=C1/C(=C/c2ccc(Cl)cc2)N=C(c2ccccc2)N1c1ccc(S(=O)(=O)Nc2nccs2)cc1 | 18.9 µM (inactive) |
| COc1ccc2c(c1)CC1=C(O2)c2ccc(OC)cc2OC1 | 39.6 µM (inactive) |
| COC(=O)c1c(O)ccc2c1c1c(n2CCc2ccccc2)C(=O)c2ccccc2C1=O | 14.6 µM (inactive) |
| CNC(=O)C(C)C1C(=O)/C(=C(O)/C=C\C(C)=C\C(C)C2OC3(C)OC(C=CC34CO4)C2C)C(=O)N1C1CCC(O)C(C)O1 (stereo unspecified) | > 100 µM (inactive) |
| COC(=O)c1cccc(OC)c1C#Cc1c(OC)cccc1OC | > 100 µM (inactive) |

Sure, the documented GI50 for CCOC(=O)NCC(=O)NCC(=O)NCC(N)=O is > 100 µM (inactive)

Sure, the documented GI50 for COc1ccc(C(CC(=O)C(C)(C)CN2CCCCC2)SCCS(=O)(=O)O)cc1 (stereo unspecified) is 27.5 µM (inactive)

Sure, the documented GI50 for COC(=O)[C@H]1C=C[C@H](OC2OC(COC(C)=O)C(OC(C)=O)C(OC(C)=O)C2OC(C)=O)n2c(=O)n(-c3ccccc3)c(=O)n21 (stereo partly specified) is 6.97 µM (inactive)

Sure, the documented GI50 for CNC/C(Cl)=N/S(=O)(=O)c1ccc(C)cc1 is 13.7 µM (inactive)

Sure, the documented GI50 for CC1=CC2=C(C(N)=O)C(=O)OC2(C)C(c2ccccc2)C1 (stereo unspecified) is > 100 µM (inactive)

Sure, the documented GI50 for Cn1c2c(c3ccccc31)CC(=S)N1CCCC(CC2O)C1 (stereo unspecified) is > 100 µM (inactive)

Sure, the documented GI50 for Cn1c(=O)c2c([nH]/c(=N/N=C/c3ccccc3C(=O)O)n2C)n(C)c1=O is > 100 µM (inactive)

Sure, the documented GI50 for Cc1ccc(NC(=O)S(N)(c2ccc(C)cc2)[N+](=O)[O-])cc1 (stereo unspecified) is > 100 µM (inactive)

Sure, the documented GI50 for Cc1cccc(C)c1NC(=O)C(C#N)C1=C(Cl)C(=O)c2ccccc2C1=O (stereo unspecified) is 18.6 µM (inactive)

----------
Test system: SN12C
Test: NCI tumour cell line growth inhibition, 48 h
Activity calls are given as the source filed them. No stated cut-off is given here; in the data, active = GI50 up to about 1.1 µM and inactive = higher.
Select the matching outcome among y = active, n = inactive

Worked cases, answers included:
| Compound | Label value |
| --- | --- |
| Cc1cc2nc(-c3cc(C(C)(C)C)c(O)c(C(C)(C)C)c3)[nH]c2cc1C | n |
| COc1ccc2c(c1)CC1=C(O2)c2ccc(OC)cc2OC1 | n |
| COc1ccc(CCc2cc(OC)c(O)c(OC)c2)cc1 | n |
| O=C1CC(C(CC(=O)c2ccccc2)c2ccccc2)C(=O)c2ccccc2N1 (stereo unspecified) | n |
| Fc1cc(C2=Nn3c(CNc4ccc(Cl)cc4)nnc3S/C2=C\c2ccc(-c3ccc(Cl)cc3)o2)c(Cl)cc1Cl | n |
| Cc1nc(N)sc1/N=N/c1cc(Cl)c([N+](=O)[O-])cc1Cl | n |
| CC(C)=CCC[C@@H](C)C1=C(O)C(=O)C(C)=C(N[C@H](C)c2ccccc2)C1=O | n |
| CC(C)CC(N)C(=O)OCN1C(=O)C2C3C=CC(C2C1=O)C1C2C(=O)N(COC(=O)C(N)CC(C)C)C(=O)C2C31 (stereo unspecified) | n |

Give the logged outcome of this assay for the following compound: CN(C)CCNC(=O)c1c2ccccc2cc2ccccc12
n

Give the logged outcome of this assay for the following compound: CC(C)C(CC(=O)OCC(CO)OC(=O)CC(C(C)C)C(C)C)C(C)C (stereo unspecified)
n

Give the logged outcome of this assay for the following compound: COc1c(C)c(C/C=C(\C)CC/C=C(\C)CC/C=C(\C)CC/C=C(\C)CCC=C(C)C)c(OC)c(OC)c1OC
n

Give the logged outcome of this assay for the following compound: Nc1ccc(-c2nc3ccccc3s2)cc1C#Cc1ccccc1
n

Give the logged outcome of this assay for the following compound: Cc1nc2sc3ccccc3n2c(=O)c1/N=N/c1ccc(Cl)cc1
n

Give the logged outcome of this assay for the following compound: CCOC(=O)C1Cc2c(cc3c4c(cccc24)N(C(C)=O)C3)N(C)C1 (stereo unspecified)
n

----------
Entries and their measured GI50 follow.
System: UACC-62
Assay: NCI tumour cell line growth inhibition, 48 h
Activity calls are given as the source filed them. Cut-off read from the data, not from the text of the source: active = GI50 up to about 1.1 µM and inactive = higher.

Sample records with GI50:
| Compound | GI50 |
| --- | --- |
| NCc1ccc(O)c(O)c1 | > 100 µM (inactive) |
| O=c1c(=O)c2cscc2c1=O | 4.73 µM (inactive) |
| COC(=O)C1Cc2c([nH]c3ccccc23)C(c2ccccc2O)N1Cc1ccccc1 (stereo unspecified) | 25.4 µM (inactive) |
| Cn1c(=O)c(C2c3ccccc3Oc3c2c(=O)n(C)c2ccccc32)c(O)c2ccccc21 (stereo unspecified) | 44.9 µM (inactive) |
| Cc1sc2nc3n(c(=O)c2c1C)N=CN(c1ccc(Cl)cc1)C3 | > 100 µM (inactive) |
| O=C1CN2C(c3ccccc3)=NN(c3ccc([N+](=O)[O-])cc3)C2(c2ccccc2)c2cc(Cl)ccc2N1CC1CC1 (stereo unspecified) | > 100 µM (inactive) |
| Nc1ccc(-c2nc3ccccc3s2)cc1C#Cc1ccccc1 | 17.9 µM (inactive) |
| O=C(O)c1cc(=O)c2cc(C(=O)c3cccs3)c(Cl)c(Cl)c2o1 | > 100 µM (inactive) |
| O=C(CC(=O)c1ccccc1)C(=O)Nc1ccc(Cl)cc1 | > 100 µM (inactive) |
| O=c1oc2ccc([N+](=O)[O-])cc2c(Nc2ccc3c(c2)Sc2ccccc2O3)c1[N+](=O)[O-] | 15 µM (inactive) |

Moving on to another compound below.
Sure, the documented GI50 for Cc1ccc2nc3c(C)cc(=O)cc-3sc2c1 is 14.1 µM (inactive)
